B1: Intersectin-1, residues 909 to 971; numbered along this chain, Q15811 (parent)
chain: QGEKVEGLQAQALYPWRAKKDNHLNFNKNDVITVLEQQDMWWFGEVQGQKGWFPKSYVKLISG

variants of: B1; test: abundance fitness (aPCA) (normalised: wild type 0, dead -1); higher = more abundant; growth selection in yeast, the domain comes from the species named; details: Homo sapiens
The reader will find reported abundance fitness values listed item by item below.
METRIC: abundance fitness

# VARIANT, METRIC, DATA VALUE
records = [
    ("G2M", "abundance fitness", 0.113),
    ("K4Y", "abundance fitness", -0.039),
    ("V58L", "abundance fitness", -0.812),
    ("W52Q", "abundance fitness", -0.776),
    ("L8W", "abundance fitness", -0.152),
    ("F26S", "abundance fitness", -0.866),
    ("S62F", "abundance fitness", -0.63),
    ("Q1R", "abundance fitness", -0.299),
    ("E45Q", "abundance fitness", 0.067),
    ("K50R", "abundance fitness", 0.056),
    ("Q9W", "abundance fitness", -0.109),
    ("M40C", "abundance fitness", 0.084),
    ("D30F", "abundance fitness", -0.742),
    ("D39Y", "abundance fitness", -0.208),
    ("M40I", "abundance fitness", 0.034),
    ("Q37C", "abundance fitness", -0.127),
    ("S62V", "abundance fitness", -0.253),
    ("I32P", "abundance fitness", -0.42),
    ("K28Q", "abundance fitness", -0.197),
    ("G63M", "abundance fitness", 0.011),
    ("Y57D", "abundance fitness", -0.399),
    ("I32Q", "abundance fitness", -1),
    ("Q38C", "abundance fitness", -0.04),
    ("N22S", "abundance fitness", 0.036),
    ("V5W", "abundance fitness", -0.106),
    ("E45Y", "abundance fitness", 0.003),
    ("E45C", "abundance fitness", -0.117),
    ("W42T", "abundance fitness", -0.527),
    ("V34S", "abundance fitness", -0.424),
    ("G48S", "abundance fitness", -0.149),
    ("D21C", "abundance fitness", -0.167),
    ("W52G", "abundance fitness", -1.18),
    ("K20F", "abundance fitness", -0.101),
    ("W42V", "abundance fitness", -0.411),
    ("L35M", "abundance fitness", -0.019),
    ("I32E", "abundance fitness", -1.03),
    ("A12S", "abundance fitness", -0.577),
    ("N29W", "abundance fitness", -0.345),
    ("F43H", "abundance fitness", 0.168),
    ("S62G", "abundance fitness", -0.129),
    ("V58T", "abundance fitness", -0.395),
    ("L13S", "abundance fitness", -0.412),
    ("N29Y", "abundance fitness", -0.282),
    ("K19T", "abundance fitness", 0.033),
    ("N22T", "abundance fitness", 0.003),
    ("Q47C", "abundance fitness", -0.332),
]
